System: P388
Experiment: Cytotoxicity against mouse P388 cells after 3 days by MTT assay
Format: functional
Details: P388, 72 h, read-out: ED50 (the source's name)
// reported EC50 per item
measured-metric: EC50 (µg/mL)

1. CCCCCCCCC/C=C1\C(=O)O[C@@](C)(OC)[C@@H]1O [LITSEAKOLIDE G]    0.97
2. CCCCCCCCC/C=C1/C(=O)O[C@@](C)(OC)[C@@H]1O [LITSEAKOLIDE F]    2.04
3. CCCCCCCCC/C=C1\C(=O)O[C@@](C)(OC)[C@H]1O [LITSEAKOLIDE E]    2.94
4. C=C1OC(=O)/C(=C\CCCCCCCCCCC)[C@@H]1O [ISOLICOMOLIDE D]    2.97
5. CCCCCCCCC/C=C1/C(=O)O[C@@](C)(OC)[C@H]1O [LITSEAKOLIDE D]    1.73
6. CO[C@H](C(=O)[C@@H](O)[C@@H](C)O)[C@@H]1Cc2cc3cc(O[C@H]4C[C@@H](O[C@@H]5C[C@@H](O)[C@H](O)[C@@H](C)O5)[C@H](O)[C@@H](C)O4)c(C)c(O)c3c(O)c2C(=O)[C@H]1O[C@H]1C[C@@H](O[C@@H]2C[C@@H](O)[C@@H](O[C@@H]3C[C@](C)(O)[C@H](O)[C@@H](C)O3)[C@@H](C)O2)[C@H](O)[C@@H](C)O1 [PLICAMYCIN]    0.06
